- tested.target: Hexose transporter 1 (Plasmodium falciparum) (UniProt O97467)
- test.details: ST_JUDE_LEISH: Cytotoxicity at 2uM final concentration against transgenic Leishmania Mexicana promastigotes LmPfHT that are glucose transport deficient and complemented with the Plasmodium falciparum hexose transporter. Activity is measured by DNA content using SYBR green in vitro
- Format: functional
observed.property: inhibition

Bench note: what inhibition did `Fc1ccc2[nH]c(-c3ccc(-c4ccc(CNCc5ccccc5)cc4)cc3)nc2c1` show? 8.67%

Bench note: what inhibition did CCC(CN1C(=N)NC(c2ccccc2)(c2ccccc2)C1=O)c1ccccc1 (stereo not given) show? -2.3%

Bench note: what inhibition did `COc1ccc(CNCc2ccsc2)cc1-c1ccc(S(=O)(=O)NCCN2CCCC2)s1` show? 8.67%

Bench note: what inhibition did `COc1ccc(-c2ccc(S(=O)(=O)Nc3cc4c(cc3OC(C)C)CCN(C)CC4)cc2)cc1` show? 2.48%

Bench note: what inhibition did COc1ccc(C2CC(=O)C3=C(C2)NC(C)=C(C(=O)OC2CCCC2)C3c2cccc(O)c2)cc1 (stereo not given) show? 0.95%

====

- tested.target: Solute carrier family 2, facilitated glucose transporter member 1 (Homo sapiens) (UniProt P11166)
- Sequence (P11166 whole entry): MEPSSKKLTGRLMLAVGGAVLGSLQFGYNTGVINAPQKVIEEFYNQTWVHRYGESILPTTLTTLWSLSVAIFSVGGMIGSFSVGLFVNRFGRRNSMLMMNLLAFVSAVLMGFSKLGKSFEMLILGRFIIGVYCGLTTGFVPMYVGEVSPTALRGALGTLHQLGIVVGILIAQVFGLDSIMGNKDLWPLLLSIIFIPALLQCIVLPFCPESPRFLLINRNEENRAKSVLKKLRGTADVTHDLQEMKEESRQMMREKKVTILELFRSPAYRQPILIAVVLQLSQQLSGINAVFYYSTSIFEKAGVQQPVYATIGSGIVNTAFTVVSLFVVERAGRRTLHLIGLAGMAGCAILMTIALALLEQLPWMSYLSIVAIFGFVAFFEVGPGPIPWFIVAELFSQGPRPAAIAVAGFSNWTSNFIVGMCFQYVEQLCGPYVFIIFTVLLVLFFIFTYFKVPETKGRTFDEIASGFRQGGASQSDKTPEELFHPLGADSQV
- test.details: ST_JUDE_LEISH: Cytotoxicity at 2uM final concentration against transgenic Leishmania Mexicana promastigotes LmGLUT1 that are glucose transport deficient and complemented with the human glucose transporter GLUT1. Activity is measured by DNA content using SYBR green in vitro
- Format: functional
observed.property: inhibition

Bench note: what inhibition did `COc1c(O)cc2oc(-c3ccc(O)cc3)cc(=O)c2c1O` show? 1.18%

Bench note: what inhibition did `Cc1[nH]cc(Br)c(=O)c1-c1ccc(Oc2ccc(OC(F)(F)F)cc2)cc1` show? 3.93%

Bench note: what inhibition did CN1N=C2c3ccccc3CCC2C1c1ccc(C#N)cc1 (centres undefined) show? 12.4%

Bench note: what inhibition did `Cc1cccc(-c2nc3cc(NC(=O)c4ccc([N+](=O)[O-])o4)ccc3o2)c1` show? 6.53%

Bench note: what inhibition did `c1ccc(-c2nc3ccccc3[nH]2)c(Nc2ccnc3cc(-c4nccs4)ccc23)c1` show? 4.76%

Bench note: what inhibition did `O=C(NCCc1cccc(Cl)c1Cl)c1cnc(N2CCN(c3ccncc3)CC2)c(Cl)c1` show? 77.2%

Bench note: what inhibition did `CC(=O)Nc1ccc(Nc2ncc([N+](=O)[O-])c(Nc3ccccc3C(N)=O)n2)cc1` show? 3.27%

Bench note: what inhibition did `O=C(NCc1cccc(CN2CCOCC2)c1)c1cc(Br)cc(N2CCN(c3ccncc3)CC2)c1` show? 0.32%

Bench note: what inhibition did Cc1nc2cc(/C=C/C(=O)NC3CCC(CCN4CCc5ccc(C#N)cc5CC4)CC3)ccc2[nH]1 (centres undefined) show? 3.09%

Bench note: what inhibition did `Cc1cc2nc(-c3ccc(C(=O)NCc4ccc(C(C)(C)C)cc4)cc3)[nH]c2cc1C` show? 3.51%

Bench note: what inhibition did `CN(C)CCNc1nccc(N2CCc3ncnc(Nc4ccc(OCc5cccc(F)c5)c(Cl)c4)c3C2)n1` show? 20%

Bench note: what inhibition did `COc1ccc(NC(=O)Nc2cc(C)nc3ccccc23)cc1Cl` show? 9.47%

Bench note: what inhibition did `COc1ccc(-c2cnc(N)c(-c3ccc(C(N)=O)cc3)c2)cc1OC` show? 3.97%

Bench note: what inhibition did `COc1ccc(CNCCCCCNCc2ccc(Cl)c(Cl)c2)cc1Cl` show? 3.98%

Bench note: what inhibition did `COc1ccc(-c2cccc(NC(=O)c3ccc(F)cc3)c2)cc1CN1CCCN(C)CC1` show? 11.2%

Bench note: what inhibition did `CCOc1ccc2c(c1)N(C(=O)C=Cc1ccccc1)C(C)(C)c1ssc(=S)c1-2` show? 0.5%

Bench note: what inhibition did COc1ccc(Cl)cc1NC(=O)C(C)N1CCN(S(=O)(=O)c2ccccc2F)CC1 (centres undefined) show? 4.36%

Bench note: what inhibition did `Oc1cc2c(cc1CN1CCN(Cc3cccs3)CC1)CCC2` show? 0.97%

Bench note: what inhibition did `COc1ccc2nccc([C@@H](O)CN3CCC(NCCNc4cccc(F)c4)CC3)c2c1` show? 6.07%

====

- tested.target: Solute carrier family 2, facilitated glucose transporter member 1 (Homo sapiens)
- test.details: ST_JUDE_LEISH: Cytotoxicity at 2uM final concentration against transgenic Leishmania Mexicana promastigotes LmGLUT1 that are glucose transport deficient and complemented with the human glucose transporter GLUT1. Activity is measured by DNA content using SYBR green in vitro
- Format: functional
observed.property: inhibition (%)
State just the number; it will be interpreted in %.

Bench note: what inhibition did `Oc1ccc(CCNc2nc(NCCCOc3cccc(CN4CCCCC4)c3Cl)nc(N3CCNCC3)n2)cc1` show? 3.62

Bench note: what inhibition did `O=C(N[C@H]1CCN(Cc2ccc(OCCN3CCNCC3)c3ccccc23)C1)c1ccc(Cl)c(Cl)c1` show? 1.1

Bench note: what inhibition did `CN(C)c1nc2cc(-n3cnc4cc(-c5ccc(Cl)cc5)sc4c3=O)ccc2n1CCCN1CCCCC1` show? 9.33

Bench note: what inhibition did `Cc1ccc(S(=O)(=O)N(C)c2ccccc2C(=O)Nc2ccccc2Oc2ccccc2)cc1` show? -0.78

Bench note: what inhibition did `CCN(CCCN1CCCC1)c1cc(C)nc(Nc2ccc(Cl)cc2)n1` show? 1.46

Bench note: what inhibition did `COc1ccc(CCc2ccc(-c3c(C)[nH]c(C)c(Cl)c3=O)cc2)cc1OC` show? 12

====

- tested.target: Hexose transporter 1 (Plasmodium falciparum)
- test.details: ST_JUDE_LEISH: Cytotoxicity at 2uM final concentration against transgenic Leishmania Mexicana promastigotes LmPfHT that are glucose transport deficient and complemented with the Plasmodium falciparum hexose transporter. Activity is measured by DNA content using SYBR green in vitro
- Format: functional
Give measured inhibition for each item. Keep answers brief.
State just the number; it will be interpreted in %.

Can you look up inhibition on Hexose transporter 1 (Plasmodium falciparum) for `Cc1cc(N[C@@H](Cc2ccccc2)C(=O)NCc2cccc(F)c2)nc(NCCc2cccs2)n1` ? 2.99

Can you look up inhibition on Hexose transporter 1 (Plasmodium falciparum) for Cc1cccc2nc(-c3ccc(-c4ccc(CN5CCCC(O)C5)cc4)s3)[nH]c12 (stereo not given) ? 7.2

Can you look up inhibition on Hexose transporter 1 (Plasmodium falciparum) for `CCCc1cn2c3c(cc(C(=O)N[C@@H](Cc4ccccc4)[C@H](O)CNC4CCCCC4)cc13)N(C)S(=O)(=O)CC2` ? 2.85

Can you look up inhibition on Hexose transporter 1 (Plasmodium falciparum) for `Cc1ccoc1C(=O)Nc1cccc(-c2cccc(-c3nc4cccc(C)c4[nH]3)c2)c1` ? 5.09

Can you look up inhibition on Hexose transporter 1 (Plasmodium falciparum) for `O=C(Nc1cccnc1)c1cn(-c2ccccc2)nc1-c1cccs1` ? 1.81

Can you look up inhibition on Hexose transporter 1 (Plasmodium falciparum) for `CN1CCN(c2ccnc3ccc(NC(=O)Nc4ccc(Br)cc4)cc23)CC1` ? 0.3

Can you look up inhibition on Hexose transporter 1 (Plasmodium falciparum) for `O=C(NCc1ccc(Cl)c(Cl)c1)c1ccc(-c2nc3ccc(Cl)cc3[nH]2)cc1` ? 9.23

Can you look up inhibition on Hexose transporter 1 (Plasmodium falciparum) for `COc1ccc2c(c1)c(C1CCN(CCCCNC(=O)c3ccc(-c4ccc(C(F)(F)F)cc4)cc3)CC1)cn2C(C)C` ? 1.93

Can you look up inhibition on Hexose transporter 1 (Plasmodium falciparum) for `CCN(CC)CCNC(=O)c1ccc(NC(=O)c2cn(-c3ccccc3)nc2-c2cccs2)cc1` ? 4.01

Can you look up inhibition on Hexose transporter 1 (Plasmodium falciparum) for `Nc1cccc(CNCc2cccc(-c3csc(-c4nc5ccccc5[nH]4)c3)c2)c1` ? 2.29

Can you look up inhibition on Hexose transporter 1 (Plasmodium falciparum) for `CN(C)CCOc1ccc(/C(=C(/CCCn2ccnc2)c2ccccc2)c2ccc(O)cc2)cc1` ? 6.01

Can you look up inhibition on Hexose transporter 1 (Plasmodium falciparum) for `O=C(N[C@@H](CC1CCCCC1)C(=O)NCCc1ccc(Cl)c(Cl)c1)c1ccc(O)c(-c2ccc(Cl)c(Cl)c2)c1` ? 0.3

Can you look up inhibition on Hexose transporter 1 (Plasmodium falciparum) for `COc1ccccc1N1CCN(c2cccc(F)c2C#N)CC1` ? 6.93

Can you look up inhibition on Hexose transporter 1 (Plasmodium falciparum) for `O=c1ccc2ccc(O)c(O)c2o1` ? 5

Can you look up inhibition on Hexose transporter 1 (Plasmodium falciparum) for `CC1CCN(Cc2ccc(NC(=O)c3cc4ccc5cccnc5c4[nH]3)cc2)CC1` ? 7.81

====

- tested.target: Hexose transporter 1 (Plasmodium falciparum)
- test.details: ST_JUDE_LEISH: Cytotoxicity at 2uM final concentration against transgenic Leishmania Mexicana promastigotes LmPfHT that are glucose transport deficient and complemented with the Plasmodium falciparum hexose transporter. Activity is measured by DNA content using SYBR green in vitro
- Type: functional
observed.property: inhibition (%)
State just the number; it will be interpreted in %.

Can you look up inhibition on Hexose transporter 1 (Plasmodium falciparum) for `Nc1c2c(nc3ccc(NC(=O)CCCc4ccccc4)cc13)CCCC2` ? 1.78

Can you look up inhibition on Hexose transporter 1 (Plasmodium falciparum) for `CCCCOc1ccccc1C(=O)NCc1csc(-c2ccccc2)n1` ? 1.14

Can you look up inhibition on Hexose transporter 1 (Plasmodium falciparum) for `COc1cccc(CN2CCN(C(c3ccccc3)c3ccccc3)CC2)c1O` ? 6.03
